# self-cleavage per record follows
B1: LINE1-full (parent)
chain: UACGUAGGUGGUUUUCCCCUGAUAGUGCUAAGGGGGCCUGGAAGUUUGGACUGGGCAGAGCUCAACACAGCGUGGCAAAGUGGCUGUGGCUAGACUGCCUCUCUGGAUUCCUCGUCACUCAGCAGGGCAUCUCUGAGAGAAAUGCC

Variants of: B1
Assay: self-cleavage, relative activity (ratio to wild type); higher = more cleavage; in vitro, sequencing; the parent is a self-cleaving ribozyme
reported_endpoint: self-cleavage

1. U46C U81G: 0.54
2. G7A G8C: 0
3. A2G U112A: 0.09
4. C99U A140G: 0.71
5. A124C A138G: 1.39
6. A124U U143C: 1.26
7. A22G U108A: 1.74
8. U12C G106A: 1.68
9. A6G A129G: 0.26
10. A64U U143C: 0.42
11. C17U U87C: 0.23
12. U9C U73C: 1.27
13. A67G C131G: 0
14. G86A U115C: 0.12
15. A31G A136U: 1.26
16. A92C A121U: 0.05
17. A24U A94G: 0.47
18. U9G: 0.93
19. A43U G82A: 1.4
20. A141C A142C: 0.71
21. U29C U45A: 0
22. A22G A42G: 0.93
23. U14C A107U: 1.2
24. C37G U130G: 0.68
25. G48U U102C: 1.43
26. U14C G82A: 1.35
27. G44A U134C: 0.92
28. G74A U119C: 1.71
29. A92G U115C: 0.08
30. A57G A142U: 0.38
31. G35U A124U: 1.41
32. U81C C111U: 1.75
33. C16A A138G: 1.65
34. U23C U26C: 1.29
35. C61U U73G: 0.16
36. U81C G125U: 1.5
37. U12C U134G: 1.97
38. G83U U102C: 0
39. A78G A138G: 1.69
40. U85C A138G: 0.17
41. U91A G144A: 0.88
42. U39A U47A: 0.93
43. U12G A42G: 1.42
44. U46G U62C: 0
45. A43U C98G: 0.06
46. G21A U109C: 0.95
47. U81G U115A: 1.28
48. A22U U47A: 1.44
49. U20A G122U: 1.59
50. U39A U132C: 1.38
51. U39C U132A: 1.46
52. U62C A138U: 0.01
53. C68U A78U: 0.37
54. G25C U85C: 0.2
55. G25A A43G: 1.27
56. G75A A78G: 0.7
57. A67U A121U: 0.12
58. G11A G70U: 0.07
59. U104A G122C: 1.48
60. U14G A129U: 0.89
61. A77U U143G: 1.48
62. G4A G139A: 1.21
63. U9C U100A: 1.41
64. U15A U130G: 1.09
65. G88A U143A: 0.07
66. U102C C113G: 1.08
67. A50G C90G: 0.06
68. A2G A65G: 0.2
69. U9A U96C: 0.19
70. A50G A140U: 0.93
71. G139C: 1.53
72. U13A A31C: 1.52
73. U132C A136U: 1.46
74. U5C G82A: 1.18
75. A79G U104C: 1.22
76. A65G A94U: 0.05
77. A57C A67U: 0.14
78. U45A U130A: 1.38
79. U1C U47A: 0.6
80. C76U A94C: 0.11
81. U130A A141U: 1.13
82. U20C G88A: 0.06
83. C116U A124G: 1.11
84. A42G A121G: 1.59
85. A50U U96C: 0.1
86. U26C A64U: 0.61
87. U20A A77G: 2.25
88. U12G U143A: 0.59
89. C90A A141G: 0.03
90. G34U A43G: 1.06
91. U62A C103A: 0.04
